Data origin, for the record: the OligoGym collection

Recorded sensor-assay potency score (higher = more potent) values for a group of sequences are listed next.
EXPERIMENTAL_SYSTEM: TMCO6
ASSAY_EXPLANATION: pooled miR-30 sensor sort-seq; sequence = guide strand; further: reference of the scale not given here
PARTICULARS: shRNA
QUANTITY_NAME: sensor-assay potency score (higher = more potent)

>  <CHAIN_SEQUENCE>
TTGCAACATTTGTAGCATGTGC

>  <RESULT>
-0.588

$$$$
>  <CHAIN_SEQUENCE>
TTTTCTGCAACATTGCACAGAA

>  <RESULT>
0.104

$$$$
>  <CHAIN_SEQUENCE>
AACACGCTCATCTCTGAGCTGC

>  <RESULT>
-0.789

$$$$
>  <CHAIN_SEQUENCE>
TTTGTAGCATGTGCTGAGGGAG

>  <RESULT>
-0.612

$$$$
>  <CHAIN_SEQUENCE>
TACTGGACAAACAAGCTTGATG

>  <RESULT>
-0.998

$$$$
>  <CHAIN_SEQUENCE>
TTCCTCAGCCTGTAGAAGCTGG

>  <RESULT>
-0.621

$$$$
>  <CHAIN_SEQUENCE>
ATACACACGATCCTGGAGCTGG

>  <RESULT>
-0.0753

$$$$

###

Recorded sensor-assay potency score (higher = more potent) by entry
EXPERIMENTAL_SYSTEM: DPRX
ASSAY_EXPLANATION: pooled miR-30 sensor sort-seq; sequence = guide strand
PARTICULARS: shRNA
QUANTITY_NAME: sensor-assay potency score (higher = more potent)

>  <CHAIN_SEQUENCE>
TTTTGCTCTGTGATTCTTGAAC

>  <RESULT>
-0.966

$$$$
>  <CHAIN_SEQUENCE>
TTGGGGTACAGGATGAGCTGGA

>  <RESULT>
0.271

$$$$
>  <CHAIN_SEQUENCE>
TCGATGACCCGTGTACACCAGG

>  <RESULT>
-1.09

$$$$
>  <CHAIN_SEQUENCE>
TTCTTAGTGAACATGGTTCGTT

>  <RESULT>
0.0305

$$$$
>  <CHAIN_SEQUENCE>
TATATATTAGGATCTCGGCAGC

>  <RESULT>
-0.886

$$$$
>  <CHAIN_SEQUENCE>
TGCTTCTTAGTGAACATGGTTC

>  <RESULT>
-0.891

$$$$
>  <CHAIN_SEQUENCE>
TTTTTGATGAATATGCTTGCAT

>  <RESULT>
0.217

$$$$

###

EXPERIMENTAL_SYSTEM: OAS3
ASSAY_EXPLANATION: pooled miR-30 sensor sort-seq; sequence = guide strand
PARTICULARS: shRNA
QUANTITY_NAME: sensor-assay potency score (higher = more potent)

>  <CHAIN_SEQUENCE>
TGTAGCTCTGTGAAGCAGGTGG

>  <RESULT>
0.189

$$$$
>  <CHAIN_SEQUENCE>
TTGAACTGGGAGTCCTTCCCGC

>  <RESULT>
-0.289

$$$$
>  <CHAIN_SEQUENCE>
TACCAGTGCTTCACCAGCCGGA

>  <RESULT>
-0.364

$$$$
>  <CHAIN_SEQUENCE>
TTCAACATCACAGCCATCCCTT

>  <RESULT>
-0.469

$$$$
>  <CHAIN_SEQUENCE>
TTGACCGTCCAGTAGACACAGA

>  <RESULT>
-0.525

$$$$
>  <CHAIN_SEQUENCE>
TAGACTTGAGAGCTGGGCCTGG

>  <RESULT>
-0.478

$$$$
>  <CHAIN_SEQUENCE>
TTTGGTGCCAGAACTGAGCTGC

>  <RESULT>
0.736

$$$$
>  <CHAIN_SEQUENCE>
TTTGTTCTGAGCCGCAACCTGG

>  <RESULT>
-1.14

$$$$
